Provenance of the data: PubChem BioAssay AID489024

- targetOrSystem: CHO-CHOP luciferase reporter, UPR activation, luminescence
- assayInfo: CHOP reporter induction, apoptotic UPR branch – CHO-CHOP cells, luciferase luminescence, confirmation (AID 489024);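 note: compounds added alone to reporter cells with no tunicamycin stress co-treatment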
Activity calls are given as the source filed them.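 Rule for the calls: active = compounds whose mean EC50, the dose giving half the maximal reporter activation, is at or below a set limit; inactive = the rest.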
measuredMetric: EC50

Known results for molecules:
- molecule: "COC(=O)C1=C(C)N(c2ccc(C)c(C)c2)/C(=C/c2cccs2)C1=O"
  EC50: "> 80 µM (inactive)"
- molecule: "Cc1ccnc(Nc2nc(-c3ccc(O)c(O)c3)cs2)c1"
  EC50: "1.34 µM"
- molecule: "C/C(=N\\NC(=O)C(c1ccccc1)c1ccccc1)c1ccccn1"
  EC50: "16 µM"
- molecule: "COc1ccc(-c2cc(C(F)(F)F)nc(S(C)(=O)=O)n2)cc1OC"
  EC50: "9.31 µM"

Query block: For COc1ccc(C(=O)Cn2c(C(=O)/C=C/c3ccccc3)nc3ccccc32)cc1 , what is its reported EC50?
Result block: 10.1 µM

Query block: For O=C(Nc1cccc(S(=O)(=O)N2CCCCC2)c1)c1ccc([N+](=O)[O-])o1 , what is its reported EC50?
Result block: 5.08 µM

Query block: For O=[N+]([O-])c1ccccc1S(=O)(=O)Nc1cccc2cccnc12 , what is its reported EC50?
Result block: 7.67 µM

Query block: For Cc1ccc(NC(=O)c2nc(S(=O)(=O)Cc3ccccc3C)ncc2Cl)cc1C , what is its reported EC50?
Result block: 8.51 µM

Query block: For O=C(c1ccc(Cl)cc1)C(CN1CCCC1)c1ccccc1 (stereo unspecified) , what is its reported EC50?
Result block: 14.3 µM

Query block: For Oc1ccc(-c2csc(Nc3ccccn3)n2)cc1O , what is its reported EC50?
Result block: 3.7 µM

Query block: For O=c1nc(Nc2cccc(Cl)c2)oc2cc(Cl)oc(=O)c12 , what is its reported EC50?
Result block: 11.5 µM

---

- targetOrSystem: CHO-CHOP luciferase reporter, UPR activation, luminescence
- assayInfo: CHOP reporter induction, apoptotic UPR branch – CHO-CHOP cells, luciferase luminescence, confirmation (AID 489024);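 note: compounds added alone to reporter cells with no tunicamycin stress co-treatment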
Activity calls are given as the source filed them.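 The calls were made as follows: active = compounds whose mean EC50, the dose giving half the maximal reporter activation, is at or below a set limit; inactive = the rest.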
Respond with a class label; see yes (1) for active, no (0) for inactive

- moleculeSmiles: "C=CCN=c1scc(C)n1/N=C/c1ccc(O)c(O)c1"
  categoryLabel: "yes (1)"
- moleculeSmiles: "CCc1cc2c(=O)[nH]c(-c3ccccn3)nc2s1"
  categoryLabel: "yes (1)"
- moleculeSmiles: "COc1ccc(-c2cc3ccccc3oc2=O)cc1NC(=S)NC(=O)c1ccc2c(c1)OCCO2"
  categoryLabel: "yes (1)"
- moleculeSmiles: "Cc1nn(Cc2c(Cl)cccc2Cl)c(C)c1NC(=O)c1cn(-c2ccccc2)nc1-c1ccccc1"
  categoryLabel: "yes (1)"
- moleculeSmiles: "O=C1NC(=O)N(CCc2ccc(F)cc2)C(=O)/C1=C/C=C/c1ccccc1"
  categoryLabel: "yes (1)"

Query block: # lookup: test call for O=C(Nc1ccc(S(=O)(=O)N2CCCC2)cc1)c1ccc([N+](=O)[O-])o1
Result block: yes (1)

Query block: # lookup: test call for CC(=O)/C(=N\Nc1ccc(Cl)cc1Cl)Sc1cccc2cccnc12
Result block: yes (1)

Query block: # lookup: test call for CN(C)C(=S)N=Nc1[nH]c2ccccc2c1O
Result block: yes (1)

Query block: # lookup: test call for O=C1Nc2ccc(Br)cc2/C1=N/N=C/C1=C(N2CCOCC2)C(=C\c2ccccc2)/CC1
Result block: no (0)

Query block: # lookup: test call for O=[N+]([O-])c1ccc(N/N=C/c2cccc(O)c2O)c(S(=O)(=O)N2CCOCC2)c1
Result block: yes (1)
